- targetUnderTest: human Nectin-4 (protein used in the SPR affinity measurements) (human) (UniProt Q96NY8)
- Sequence (Q96NY8 32-349 limits assumed): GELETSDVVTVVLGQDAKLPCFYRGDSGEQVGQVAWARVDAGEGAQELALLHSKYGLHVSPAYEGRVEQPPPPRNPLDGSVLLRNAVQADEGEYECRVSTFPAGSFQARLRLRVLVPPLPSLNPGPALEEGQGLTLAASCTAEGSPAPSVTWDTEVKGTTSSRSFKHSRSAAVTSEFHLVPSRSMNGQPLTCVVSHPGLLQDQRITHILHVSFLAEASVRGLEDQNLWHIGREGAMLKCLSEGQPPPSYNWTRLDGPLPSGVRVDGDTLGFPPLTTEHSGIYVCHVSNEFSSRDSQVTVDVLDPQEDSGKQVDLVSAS
- protocolSummary: SPR, human IgG1
measurementType: koff (s⁻¹)
Provide only the numeric value, understood in s⁻¹.

Item: H4L1 (antibody, human IgG1, V domains shown, human IgG1 isotype) VH: QVQLVQSGAEVKKPGASVKVSCKASGYIFTSYWMHWVKQAPGQGLEWMGEIDPSDSYTNYNQKFKGRVTMTLDKSTSTTYMELSSLRSEDTAVYYCARGYGNYGDYWGQGTLVTVSS VL: DVVMTQSPLSLPVTPGEPASISCRSSKSLLHSNGITYLYWYLQKPGQSPQLLIYQMSNLASGVPDRFSSSGSGTDFTLKISRVEAEDVGVYYCAQNLELPWTFGGGTKVEIK | koff: 0.0059

Documented koff of H5L1 (antibody, human IgG1, V domains shown, human IgG1 isotype) VH: QVQLVQSGAEVKKPGASVKVSCKASGYIFTSYWMHWVKQRPGQGLEWMGEIDPSDSYTNYNQKFKGRVTMTLDKSTSTTYMELSSLRSEDTAVYYCARGYGNYGDYWGQGTLVTVSS VL: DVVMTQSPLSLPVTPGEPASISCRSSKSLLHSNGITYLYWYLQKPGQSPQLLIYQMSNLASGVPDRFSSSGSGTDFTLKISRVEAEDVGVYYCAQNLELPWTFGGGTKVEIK : 0.0056

Looking up H0L0 (antibody, human IgG1, V domains shown, human IgG1 isotype; also called HOLO; humanized 5E7 variant H0L0) VH: QVQLVQSGAEVKKPGASVKVSCKASGYTFTSYWMHWVRQAPGQGLEWMGEIDPSDSYTNYNQKFKGRVTMTRDTSTSTVYMELSSLRSEDTAVYYCARGYGNYGDYWGQGTLVTVSS VL: DIVMTQSPLSLPVTPGEPASISCRSSKSLLHSNGITYLYWYLQKPGQSPQLLIYQMSNLASGVPDRFSGSGSGTDFTLKISRVEAEDVGVYYCAQNLELPWTFGGGTKVEIK , I see its koff listed as 0.014

These measurements were taken from patent US20250297004A1.
